# TARGET OF ASSAY: SARS-CoV-2 Main Protease (SARS-CoV-2)
# CONDITION: 50.0 µM

| MOLECULE | inhibition [%] |
| --- | --- |
| O=C(CCl)N1CCN(S(=O)(=O)c2cccc(F)c2)CC1 | 96.8 |
| O=S(=O)(Cc1noc(C2CC2)n1)Nc1cccnc1 | 9.43 |
| O=C(CCl)N1CCCC(N(CC2CCCCC2)C2CCC(O)CC2)C1 (stereo not drawn) | 24.9 |
| C=CC(=O)N(c1ccc(C(C)(C)C)cc1)C(C(=O)Nc1ccc(OC)cc1OC)c1cccnc1 (stereo not drawn) | 45.9 |
| C=CC(=O)N(c1ccc(C(C)(C)C)cc1)C(C(=O)NC(C)(C)C)c1cnc[nH]1 (stereo not drawn) | 0 |
| O=C1NC(c2cccnc2)C(=O)N1c1cccc(Cl)c1 (stereo not drawn) | 69.6 |
| O=C(Cc1cncnc1)Nc1cc(F)cc(OC2CC(=O)N2)c1 (stereo not drawn) | 45.7 |
| O=C(NCc1ccns1)Nc1cccc(CN2CCCC2=O)c1 | 0 |
| Cc1cc(C(=O)CCl)c(C)n1NC(=O)c1n[nH]c(=O)c2ccccc12 | 42.3 |
| CCc1nnnn1-c1ccccc1NC(=O)C1(c2cncc(Br)c2)CC1 | 0 |
| O=C(CCl)N1CCN(Cc2cc(Cl)ccc2CNC(=O)N2CCOCC2)CC1 | 93.3 |
| Cc1cnc(CC(=O)Nc2cccnc2)o1 | 0 |
| O=C(O)c1cn(-c2ccc(F)cc2)c2cc(N3CCNCC3)c(F)cc2c1=O | 20 |
| Cc1ccc(S(=O)(=O)N2CCN(C(=O)c3cc(=O)[nH]c4ccc(Cl)cc34)CC2)cc1 | 11.5 |
| O=C(c1cc(=O)[nH]c2ccccc12)N1CCN(Cc2ccccc2)CC1 | 82.4 |
| C=CC(=O)N(c1ccc(C(C)(C)C)cc1)C(C(=O)Nc1c(C)cccc1CC)c1cccnc1 (stereo not drawn) | 0 |
| O=C(Nc1nncn1C1CC1)[C@@H]1CCOc2ccc(Cl)cc21 (stereo in doubt) | -10.4 |
| COc1cc(OC)cc(Oc2cccc(CNC(=O)Cn3nnc4ccccc43)c2)c1 | 0 |
| N#Cc1cccc(NC(=O)Nc2cncc(N)c2)c1 | 48.4 |
| CCC(C)(C)CCN(Cc1ccsc1)C(=O)Cn1nnc2ccccc21 | 40.1 |
| CN(CCNC(=O)c1cc(=O)[nH]c2ccccc12)c1ccccc1 | 8.3 |
| O=C(Cc1cccnc1Cl)Nc1cccc(OCCc2ccccc2)c1 | 5.03 |
| CCC(C)CC(=O)N1CCCC(NC(=O)Cn2c(C)cc(C)nc2=O)CC1 (stereo not drawn) | -29.6 |
| COc1ccccc1OCCNC(=O)c1cc(=O)[nH]c2cc(F)ccc12 | 9.64 |
| O=C(CCl)N1CCN(Cc2cc(Cl)cc(Cl)c2)CC1 | 100 |
| C=CC(=O)N(C1CC(C)OC1=O)C(C(=O)NC(C)(C)C)c1cccnc1 (stereo not drawn) | 0 |
| C=CC(=O)N(c1ccc(C(F)(F)F)cc1)C(C(=O)NCCc1cccc(F)c1)c1cccnc1 (stereo not drawn) | 100 |
| Cc1nc(N)sc1CN1CCN(Cc2cccc(Cl)c2)C1=O | 0 |
| CC(NC(=O)CCl)c1cc(Cl)cc(-c2ccc(S(N)(=O)=O)cc2)c1 (stereo not drawn) | 79 |
| Cc1cccc(NC(=O)C(C#N)C(=O)C2CCC2)c1 (stereo not drawn) | 0 |
| O=C1/C(=C/c2ccc(O)cc2)c2ccccc2C(=O)N1Cc1ccc2c(c1)OCO2 | 20.1 |
| CC(C)C[C@H](NC(=O)OCc1ccccc1)C(=O)N[C@H](C(=O)NCC(=O)C=[N+]=[N-])C(C)C (stereo in doubt) | 15.3 |
| Cc1ccncc1NC(=O)CCc1ccccn1 | 11.4 |
| Cc1nnc(NC(=O)Cc2cccc(Cl)c2F)s1 | 0 |
| Cc1cccc(NC(=O)CN2C(=O)C(=O)c3ccccc32)c1 | 53.7 |
| C=C1CCC[C@H]2[C@](C)(CC3=C(O)C(=O)C=C(OC)C3=O)[C@@H](C)CC[C@]12C (stereo in doubt) | 2.35 |
| Cc1noc(C)c1COc1ccccc1C(=O)NC(C)c1nnc2ncccn12 (stereo not drawn) | 18.5 |
| O=C(Nc1nncn1C1CC1)C1CCOc2ccc(Cl)cc21 (stereo not drawn) | 1.9 |
| C=CC(=O)N(c1ccc(C2(C)CC2)cc1)C(C(=O)Nc1ccc(OC)cc1C)c1cccnc1 (stereo not drawn) | 0 |
| Cc1ccc(S(=O)(=O)N2CCC(NC(=O)N(C)Cc3cc(C)on3)CC2)cc1 | 0 |
| Cc1ccc(NC(=O)Cc2cccc(Cl)c2)cn1 | 0 |
| Cc1ccncc1NC(=O)Cc1cccc(C(N)=O)c1 | 0.535 |
| COc1ccc2c(=O)cc(-c3ccc(OCc4ccccc4)cc3)oc2c1 | 10.7 |
